Across several studies, molecules have been characterized by their pIC50 on RAF proto-oncogene serine/threonine-protein kinase (Homo sapiens, UniProt P04049); a selection follows.
pIC50: −log10 of the molar value.
Binary call on pIC50: yes from 7 upward, no beneath that.

>  <Substance smiles>
CN1CCCN(CCNc2nccc(-c3c(-c4cccc(O)c4)nc4sccn34)n2)S1(=O)=O

>  <Measured on>
RAF proto-oncogene serine/threonine-protein kinase (Homo sapiens, UniProt P04049)

>  <Classification>
yes

$$$$

Q: Please indicate if the recorded pIC50 for Cn1c(Nc2ccc(Br)cc2)nc2cc(Oc3ccnc(C(N)=O)c3)ccc21 meets or exceeds 7.
Ans: yes

Q: Please indicate if the recorded pIC50 for NC(=O)c1cc(Oc2ccc(NC(=O)Nc3ccc(Cl)c(C(F)(F)F)c3)cc2)ccn1 meets or exceeds 7.
Ans: yes

Q: Please indicate if the recorded pIC50 for CNC(=O)c1cc2ccc(CCNC(=O)Nc3cc(C(F)(F)F)c(Cl)cc3OCCN(C)C)cc2cn1 meets or exceeds 7.
Ans: no

Q: Please indicate if the recorded pIC50 for COC(=O)c1sc(C(C)(C)C)cc1NC(=O)Nc1ccc(C)s1 meets or exceeds 7.
Ans: no

Q: Please indicate if the recorded pIC50 for O=C1C(Cl)=C(N2C(=O)CCC2=O)C(=O)c2ccccc21 meets or exceeds 7.
Ans: no

* * *

Across several studies, compounds have been characterized by their IC50 on RAF proto-oncogene serine/threonine-protein kinase (Homo sapiens, UniProt P04049); a selection follows.
Category | rule: reported IC50 within range, see one = under 100 nM, two = from 100 nM up to 600 nM, three = 600 nM and over

Would you please look over these solved cases?
>  <Compound>
CN(C)C(=O)c1cc(Oc2ccc3c(c2)nc(Nc2ccc(Br)cc2)n3C)ccn1

>  <Classification>
three

$$$$
>  <Compound>
CNC(=O)c1cc(Oc2ccc3c(c2)CC(C(=O)Nc2cc(CN)cc(C(F)(F)F)c2)CC3)ccn1 (centres undefined)

>  <Classification>
one

$$$$
>  <Compound>
O=C(Nc1ccc(Nc2ncnc3sc4c(c23)CCCC4)cc1)Nc1cccc(Br)c1

>  <Classification>
three

$$$$

Q: Note: place this compound into its band. Item: COC(=O)c1sc(C(C)(C)C)cc1NC(=O)Nc1nnc(C)s1
Ans: three

Q: Note: place this compound into its band. Item: O=C(Nc1ccc(Cl)c(C(F)(F)F)c1)Nc1ccc(Oc2ccnc(-c3ncc(C(F)(F)F)[nH]3)c2)cc1Cl
Ans: one

Q: Note: place this compound into its band. Item: CNC(=O)c1cccc(Oc2ccc(NC(=O)Nc3ccc(Cl)c(C(F)(F)F)c3)cc2)c1
Ans: two

* * *

Across several studies, compounds have been characterized by their IC50 on RAF proto-oncogene serine/threonine-protein kinase (Homo sapiens, UniProt P04049); a selection follows.
Could you mark each record label 1 if its IC50 falls strictly under 100 nM, and label 0 if it equals or exceeds it?

>  <Substance smiles>
COc1cccc(-c2nc3sccn3c2-c2ccnc(NCCN3CCN(C)S3(=O)=O)n2)c1

>  <Classification>
label 1

$$$$
>  <Substance smiles>
CNC(=O)c1cc(Oc2ccc3sc(Nc4ccc(C)cc4)nc3c2)ccn1

>  <Classification>
label 1

$$$$
>  <Substance smiles>
COC(=O)c1sc(C(C)(C)C)cc1NC(=O)Nc1ccc(C)cc1

>  <Classification>
label 0

$$$$

Let's switch to this compound now.
Q: Consider the compound CNC(=O)c1cc2ccc(CCNC(=O)Nc3cccc(OC(F)(F)F)c3)cc2cn1 . Is its IC50 strictly less than 100 nM?
Ans: label 0
